- TARGET_UNDER_TEST: human P2X7 (Homo sapiens (Human), UniProt Q99572)
- Sequence (Q99572 whole entry): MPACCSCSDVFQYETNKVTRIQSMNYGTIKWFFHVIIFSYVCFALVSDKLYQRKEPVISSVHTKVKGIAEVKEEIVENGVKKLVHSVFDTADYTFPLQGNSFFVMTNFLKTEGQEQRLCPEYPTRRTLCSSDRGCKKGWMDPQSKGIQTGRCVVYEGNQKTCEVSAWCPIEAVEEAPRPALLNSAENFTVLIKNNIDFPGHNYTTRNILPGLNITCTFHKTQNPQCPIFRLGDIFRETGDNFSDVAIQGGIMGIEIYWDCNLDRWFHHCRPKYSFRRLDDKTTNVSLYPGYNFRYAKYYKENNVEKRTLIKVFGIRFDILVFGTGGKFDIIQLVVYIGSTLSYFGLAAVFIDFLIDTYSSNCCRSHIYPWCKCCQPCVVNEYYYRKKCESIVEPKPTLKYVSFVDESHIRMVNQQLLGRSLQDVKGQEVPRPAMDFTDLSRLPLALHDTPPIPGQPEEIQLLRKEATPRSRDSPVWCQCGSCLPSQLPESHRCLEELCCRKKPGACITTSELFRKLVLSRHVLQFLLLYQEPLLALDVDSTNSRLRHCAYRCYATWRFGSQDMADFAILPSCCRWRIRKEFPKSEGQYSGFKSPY
- PROCEDURE_DETAILS: Radioligand binding ([3H]A-804598), human P2X7-1321N1 cell membranes
- RECORDED_CONDITIONS: [3H]A-804598, human P2X7-1321N1 membranes
Threshold check on Ki: strictly below 0.04 µM is label 1; on or above 0.04 µM is label 0.

Request: Say whether its Ki is strictly beneath 0.04 µM. Entry: CC1c2n[nH]c(-c3cnccn3)c2CCN1C(=O)c1cccc(Cl)c1Cl (stereo not shown) [Example 433]
Result: label 1

Request: Then CC1c2n[nH]c(-c3ccnn3C)c2CCN1C(=O)c1cccc(C(F)(F)F)c1Cl (stereo not shown) [Example 437] ?
Result: label 0

Request: Then CC1c2n[nH]c(-c3ccccn3)c2CCN1C(=O)c1cccc(C(F)(F)F)c1Cl (stereo not shown) [Example 432] ?
Result: label 1

Request: Then CC1c2n[nH]c(-c3ncccn3)c2CCN1C(=O)c1cccc(Cl)c1Cl (stereo not shown) [Example 431] ?
Result: label 1

Request: Then CC1c2n[nH]c(-c3ccc(F)cn3)c2CCN1C(=O)c1cccc(C(F)(F)F)c1Cl (stereo not shown) [Example 430] ?
Result: label 1

Request: Then CC1c2n[nH]c(-c3ccc(F)cc3)c2CCN1C(=O)c1cccc(Cl)c1Cl (stereo not shown) [Example 435] ?
Result: label 0

Request: Then CC1c2n[nH]c(-c3ccc(F)cc3)c2CCN1C(=O)c1cccc(C(F)(F)F)c1Cl (stereo not shown) [Example 434] ?
Result: label 0

---

- TARGET_UNDER_TEST: human P2X7 (Homo sapiens (Human))
- PROCEDURE_DETAILS: Ca2+ flux (FLIPR) in 1321N1 cells expressing recombinant human P2X7;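 note: cells loaded with Calcium-4 dye, preincubated with test compound for 30 min, fluorescence change read 180 s after agonist addition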
- Type: cell-based
- RECORDED_CONDITIONS: Ca2+ flux, 250 μM BzATP, human P2X7 1321N1 cells
Could you please report measured IC50 for the items listed next?
All answers are understood in nM, so give the number only.

Request: Given C[C@H]1c2nnn(-c3ccsc3)c2CCN1C(=O)c1cccc(C(F)(F)F)c1Cl , state its recorded IC50.
Result: 1030

Request: Then C[C@H]1Cc2c(nnn2-c2ncc(O)cn2)CN1C(=O)c1cccc(C(F)(F)F)c1F ?
Result: 16.6

Request: Then C[C@H]1Cc2c(nnn2-c2cc[nH]n2)CN1C(=O)c1ccnc(C(F)(F)F)c1F (single isomer, unassigned) ?
Result: 14

Request: Then CC(C)n1ccc(-n2nnc3c2C[C@H](C)N(C(=O)c2cccc(C(F)(F)F)c2Cl)C3)n1 ?
Result: 28.3

---

- TARGET_UNDER_TEST: human P2X7 (Homo sapiens (Human))
- PROCEDURE_DETAILS: Radioligand binding ([3H]A-804598), human P2X7-1321N1 cell membranes
- RECORDED_CONDITIONS: human P2X7-1321N1 membranes, tritiated A-804598
OBSERVED_PROPERTY: pKi
# log scale: pKi equals minus log10 of the concentration in mol/L

Request: Recall the recorded pKi for C[C@H]1Cc2c(nnn2-c2ncc(F)cn2)CN1C(=O)c1ccc(Cl)cc1F [Example 156] with human P2X7 (Homo sapiens (Human)) and state it.
Result: 8.20

Request: Then C[C@@H]1c2nnn(-c3cccc(C(F)(F)F)n3)c2CCN1C(=O)c1cccc(C(F)(F)F)c1Cl (single isomer, unassigned) [Example 379] ?
Result: 6.70

Request: Then Cc1cc(-n2nnc3c2CCN(C(=O)c2ccnc(C(F)(F)F)c2F)[C@@H]3C)ncc1F (single isomer, unassigned) [Example 368] ?
Result: 7.40

Request: Then Cc1c(C(=O)N2Cc3nnn(-c4ccn[nH]4)c3C[C@H]2C)cccc1C(F)(F)F (single isomer, unassigned) [Example 346] ?
Result: 8.00
